# SYSTEM: human PCSK9 / human LDLR EGFa domain interaction (Homo sapiens (Human), UniProt Q8NBP7)
# Sequence (Q8NBP7 153-692): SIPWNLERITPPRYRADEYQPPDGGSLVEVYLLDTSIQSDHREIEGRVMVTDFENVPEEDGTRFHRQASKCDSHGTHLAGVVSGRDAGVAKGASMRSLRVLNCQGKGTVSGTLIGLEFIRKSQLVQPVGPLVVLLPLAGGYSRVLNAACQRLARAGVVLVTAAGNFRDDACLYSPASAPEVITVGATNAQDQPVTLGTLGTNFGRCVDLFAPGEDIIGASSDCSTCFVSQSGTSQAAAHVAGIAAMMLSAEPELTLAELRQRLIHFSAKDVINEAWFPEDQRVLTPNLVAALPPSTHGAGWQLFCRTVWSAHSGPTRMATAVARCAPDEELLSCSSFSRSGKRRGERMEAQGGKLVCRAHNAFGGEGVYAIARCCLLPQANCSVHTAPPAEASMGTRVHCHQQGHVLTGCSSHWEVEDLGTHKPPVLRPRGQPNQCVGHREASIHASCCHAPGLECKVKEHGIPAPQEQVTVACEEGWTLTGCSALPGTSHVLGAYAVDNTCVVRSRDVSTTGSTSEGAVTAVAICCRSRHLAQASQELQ
# Sequence (Q8NBP7 31-152 partner): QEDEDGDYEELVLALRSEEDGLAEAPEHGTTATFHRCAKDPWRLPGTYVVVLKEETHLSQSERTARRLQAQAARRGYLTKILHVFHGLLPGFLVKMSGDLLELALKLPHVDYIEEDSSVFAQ
# METHOD NOTES: TR-FRET assay of inhibition of the PCSK9-LDLR protein-protein interaction
# Assay type: binding
# EXPERIMENTAL PARAMETERS: TR-FRET, 20 nM human PCSK9, 20 nM human LDLR EGFa domain, 2 hours room temperature; read-out: IC50
Starred links: 1 amine or outer side, 2 acyl side, 3 side chain; linkers in the order of their positions; H or OH if unused. Positions of bridges follow the written chain, without caps; N, C: chain ends. Non-standard residues stand in square brackets, D forms with d. Residues, ends and D or L forms follow the SMILES beside them. Trp(5-F) = N[C@@H](Cc1c[nH]c2ccc(F)cc12)C(=O)O; X15 = Brc1cc(C[*:1])cc(C[*:2])c1; αMeP = C[C@@]1(C(=O)O)CCCN1; Mpa = O=C(O)CCS
Reported IC50 values are given for each entry in this list.

Example entries begin here.
{"COMPOUND": "COc1ccc(C[C@@H]2NC(=O)[C@@H]3CCCC(=O)N[C@H]4C[C@@H](C(=O)N3)N(C4)C(=O)[C@H](Cc3c[nH]c4ccc(F)cc34)NC(=O)[C@H](Cc3c[nH]c4ccc(F)cc34)NC(=O)[C@@H](C)NC(=O)[C@H](C)NCCSCc3ccc(cc3)CSCCNC(=O)[C@]3(C)CCCN3C2=O)cc1", "IC50": "1 to 12.1 µM"}
{"COMPOUND": "COc1ccc(C[C@@H]2NC(=O)[C@H]([C@@H](C)O)NC(=O)[C@@H]3CCCN3C(=O)[C@H](Cc3c[nH]c4ccc(F)cc34)NC(=O)[C@H](Cc3c[nH]c4ccc(F)cc34)NC(=O)[C@@H](C)NC(=O)[C@H](CCCCN)NC(=O)CCSCc3cc(Br)cc(c3)CSC[C@@H](C(N)=O)NC(=O)[C@]3(C)CCCN3C2=O)cc1 [Compound 061] ([Mpa]K[dA][Trp(5-F)][Trp(5-F)]PTY(Me)[αMeP]C-NH2; linker 1-10 via X15)", "IC50": "21 to 50 µM"}

Next:
Sample `COc1ccc(C[C@@H]2NC(=O)[C@H]([C@@H](C)O)NC(=O)[C@@H]3C[C@H](F)CN3C(=O)[C@H](Cc3c[nH]c4ccc(F)cc34)NC(=O)[C@H](Cc3c[nH]c4ccc(F)cc34)NC(=O)[C@@H](C)NC(=O)CNC(=O)CCCCNCc3ccc(cc3)C[C@@H](C(N)=O)NC(=O)[C@]3(C)CCCN3C2=O)cc1` — what was its IC50?
0.0001 to 0.1 µM

* * *

# SYSTEM: human PCSK9 / human LDLR EGFa domain interaction (Homo sapiens (Human), UniProt Q8NBP7)
# METHOD NOTES: TR-FRET assay of inhibition of the PCSK9-LDLR protein-protein interaction
# Type: binding
# EXPERIMENTAL PARAMETERS: TR-FRET, 20 nM human PCSK9, 20 nM human LDLR EGFa domain, 2 hours room temperature; read-out: IC50
pIC50: −log10 of the molar value. Starred links: 1 amine or outer side, 2 acyl side, 3 side chain; linkers in the order of their positions; H or OH if unused. Positions of bridges follow the written chain, without caps; N, C: chain ends. Non-standard residues stand in square brackets, D forms with d. Residues, ends and D or L forms follow the SMILES beside them. Trp(5-F) = N[C@@H](Cc1c[nH]c2ccc(F)cc12)C(=O)O; X6 = O=C(Cc1ccc(CN[*:2])cc1)[*:1]; Aad = N[C@@H](CCCC(=O)O)C(=O)O; αMeP = C[C@@]1(C(=O)O)CCCN1
Reported pIC50 values are given for each entry in this list.

{"MOLECULE": "COc1ccc(C[C@@H]2NC(=O)[C@H](Cc3cnc[nH]3)NC(=O)[C@H](CC(=O)O)NC(=O)[C@H](Cc3c[nH]c4ccc(F)cc34)NC(=O)[C@H](Cc3c[nH]c4ccc(F)cc34)NC(=O)[C@@H](C)NC(=O)[C@H](NC(C)=O)CCCCNC(=O)Cc3ccc(cc3)CNC(=O)CCC[C@@H](C(N)=O)NC(=O)[C@]3(C)CCCN3C2=O)cc1 [Compound 523] (Ac-[dK][dA][Trp(5-F)][Trp(5-F)]DHY(Me)[αMeP][Aad]-NH2; linker 1-9 via X6)", "VALUE KIND": "pIC50", "READOUT VALUE": "7.00 to 10.00"}

Next:
Value wanted: pIC50 (human PCSK9 / human LDLR EGFa domain interaction (Homo sapiens (Human), UniProt Q8NBP7)) of entry `COc1ccc(C[C@@H]2NC(=O)[C@H](Cc3cnc[nH]3)NC(=O)[C@H](CC(=O)O)NC(=O)[C@H](Cc3c[nH]c4ccc(F)cc34)NC(=O)[C@H](Cc3c[nH]c4ccc(F)cc34)NC(=O)[C@@H](C)NC(=O)[C@H](CCCCN)NC(=O)[C@@H](NC(C)=O)CCCc3cn(nn3)-c3ccc(cc3)C[C@@H](C(N)=O)NC(=O)[C@]3(C)CCCN3C2=O)cc1`
4.30 to 4.68
